Biological target: Epstein-Barr virus nuclear antigen 1 (EBNA-1), Human herpesvirus 4
Experiment: EBNA-1 inhibitors in cellular reporter, late-stage follow-up, cell-based, luciferase, dose response, assay provider data (AID 588762)
Details: 293T Qp-promoter luciferase reporter, EBNA-1 repression
Active and inactive are the calls of the source.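 Rule for the calls: active = fitted IC50 at or below 10 µM in the dose response luciferase test; inactive = IC50 weaker than 10 µM.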
MEASURED ENDPOINT: IC50

1) Cc1ccccc1-n1nnnc1SCC(=O)c1cc(C)n(CC2CCCO2)c1C (stereo unspecified) | > 148 µM (inactive)
2) Cc1cccc(C(=O)Nc2nc3ccc(S(C)(=O)=O)cc3s2)c1 | inactive
3) COc1ccc(C(=O)Nc2nc3ccc(S(C)(=O)=O)cc3s2)cc1 | inactive
4) COc1ccccc1C(=O)Nc1nc2ccc(S(C)(=O)=O)cc2s1 | > 148 µM (inactive)
5) CS(=O)(=O)c1ccc2nc(NC(=O)c3cccc(Cl)c3)sc2c1 | > 148 µM (inactive)

# IC50 of COc1ccc2nc(NC(=O)c3ccc(C)c(C)c3)sc2c1 = > 148 µM (inactive)

###

Molecular target: Epstein-Barr virus nuclear antigen 1 (EBNA-1), Human herpesvirus 4
Experiment: EBNA-1 inhibitors in cellular reporter, late-stage follow-up, cell-based, luciferase, dose response, assay provider data (AID 588762)
Conditions: 293T Qp-promoter luciferase reporter, EBNA-1 repression
Calls of active or inactive are those of the source.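 Rule for the calls: active = fitted IC50 at or below 10 µM in the dose response luciferase test; inactive = IC50 weaker than 10 µM.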
MEASURED ENDPOINT: IC50

For orientation, consider the following solved cases.
1. COCCn1c(C)cc(C(=O)CSc2nnnn2-c2ccccc2)c1C | > 148 µM (inactive)
2. Cc1cc(C(=O)CSc2nnnn2-c2ccccc2)c(C)n1Cc1cccs1 | > 148 µM (inactive)
3. CS(=O)(=O)c1ccc2nc(NC(=O)c3ccccc3F)sc2c1 | > 148 µM (inactive)
4. CS(=O)(=O)c1ccc2nc(NC(=O)c3ccc(Cl)cc3)sc2c1 | inactive
5. Cc1cc(C(=O)CSc2nnnn2-c2ccc(Cl)cc2)c(C)n1CC1CCCO1 (stereo not drawn) | > 148 µM (inactive)
6. Cc1ccc(C(=O)Nc2nc3ccc(Br)cc3s2)cc1C | > 148 µM (inactive)

Entry O=C(CSc1nnnn1-c1ccccc1)c1ccn(CC2CCCO2)c1 (stereo not drawn) — recorded IC50 = > 148 µM (inactive)

Documented IC50 of Cc1cc(C(=O)CSc2nnnn2C)c(C)n1CC1CCCO1 (stereo not drawn) : > 148 µM (inactive)

// sample Cc1cc(C(=O)CSc2nnnn2C2CC2)c(C)n1CC1CCCO1 (stereo not drawn) , its IC50 was inactive

The value of IC50 measured for the compound Cc1ccc(C(=O)Nc2nc3ccc(S(C)(=O)=O)cc3s2)cc1 turned out to be > 148 µM (inactive)

# compound CS(=O)(=O)c1ccc2nc(NC(=O)c3cccc(F)c3)sc2c1 ; its IC50 = > 148 µM (inactive)

The compound identified as Cc1ccc(C(=O)Nc2nc3cc(F)ccc3s2)cc1C registered its IC50 at > 148 µM (inactive)

// IC50 value for COc1cccc(C(=O)Nc2nc3ccc(S(C)(=O)=O)cc3s2)c1 : inactive

Sample Cc1cc(C(=O)CSc2nnnn2-c2ccccc2)c(C)n1C ; IC50 observed: inactive

Per the record, Cc1cc(C(=O)CSc2nnnn2-c2cccc(F)c2)c(C)n1CC1CCCO1 (stereo not drawn) has IC50 of > 148 µM (inactive)

Kindly note the recorded IC50 for COc1ccc2sc(NC(=O)c3ccc(C)c(C)c3)nc2c1 , which is > 148 µM (inactive)

What the record says about CS(=O)(=O)c1ccc2nc(NC(=O)c3ccccc3Cl)sc2c1 : IC50 is > 148 µM (inactive)

So for CCn1c(C)cc(C(=O)CSc2nnnn2-c2ccccc2)c1C , the logged IC50 turned out to be > 148 µM (inactive)

Item: Cc1ccc(C(=O)Nc2nc3cc(Br)ccc3s2)cc1C | IC50: > 148 µM (inactive)

Summary for this compound, Cc1cccc(-n2nnnc2SCC(=O)c2cc(C)n(CC3CCCO3)c2C)c1 (stereo not drawn) : IC50 is > 148 µM (inactive)

Please fill in: IC50 reported for COc1cccc2sc(NC(=O)c3ccc(C)c(C)c3)nc12 = > 148 µM (inactive)

The compound listed as COc1ccc(-n2nnnc2SCC(=O)c2cc(C)n(CC3CCCO3)c2C)cc1 (stereo not drawn) has a reported IC50 of > 16.4 µM (inactive)

Sample Cc1ccccc1C(=O)Nc1nc2ccc(S(C)(=O)=O)cc2s1 ; IC50 observed: > 148 µM (inactive)
